system: MDA-MB-231; experiment: cells; settings: Homo sapiens, MDA-MB-231, 72 h
Description: Cytotoxicity against human MDA-MB-231 cells assessed as inhibition of cell proliferation measured after 72 hrs by SRB assay
Quick rule for you: IC50 under 30 µM gets TRUE, anything else gets FALSE.

{"columns": ["COMPOUND_STRING", "ANSWER_LABEL"],
 "data": [
  ["NS(=O)(=O)c1ccc(-n2cc(Cn3cc(F)c(=O)[nH]c3=O)nn2)cc1", "TRUE"],
  ["NS(=O)(=O)c1ccc(CCN(Cc2ccc(Cl)cc2)C(=O)Cn2cc(F)c(=O)[nH]c2=O)cc1", "FALSE"],
  ["NS(=O)(=O)c1ccc(O)c(NC(=O)Cn2cc(F)c(=O)[nH]c2=O)c1", "TRUE"],
  ["Cc1cc(=O)oc2cc(NC(=O)Cn3cc(F)c(=O)[nH]c3=O)ccc12", "FALSE"],
  ["COc1ccc(CN(CCc2ccc(S(N)(=O)=O)cc2)C(=O)Cn2cc(F)c(=O)[nH]c2=O)cc1", "TRUE"]
]}
